// reported pEC50 per item
# target.under.test: UniProt Q13255
# Sequence (Q13255 whole entry): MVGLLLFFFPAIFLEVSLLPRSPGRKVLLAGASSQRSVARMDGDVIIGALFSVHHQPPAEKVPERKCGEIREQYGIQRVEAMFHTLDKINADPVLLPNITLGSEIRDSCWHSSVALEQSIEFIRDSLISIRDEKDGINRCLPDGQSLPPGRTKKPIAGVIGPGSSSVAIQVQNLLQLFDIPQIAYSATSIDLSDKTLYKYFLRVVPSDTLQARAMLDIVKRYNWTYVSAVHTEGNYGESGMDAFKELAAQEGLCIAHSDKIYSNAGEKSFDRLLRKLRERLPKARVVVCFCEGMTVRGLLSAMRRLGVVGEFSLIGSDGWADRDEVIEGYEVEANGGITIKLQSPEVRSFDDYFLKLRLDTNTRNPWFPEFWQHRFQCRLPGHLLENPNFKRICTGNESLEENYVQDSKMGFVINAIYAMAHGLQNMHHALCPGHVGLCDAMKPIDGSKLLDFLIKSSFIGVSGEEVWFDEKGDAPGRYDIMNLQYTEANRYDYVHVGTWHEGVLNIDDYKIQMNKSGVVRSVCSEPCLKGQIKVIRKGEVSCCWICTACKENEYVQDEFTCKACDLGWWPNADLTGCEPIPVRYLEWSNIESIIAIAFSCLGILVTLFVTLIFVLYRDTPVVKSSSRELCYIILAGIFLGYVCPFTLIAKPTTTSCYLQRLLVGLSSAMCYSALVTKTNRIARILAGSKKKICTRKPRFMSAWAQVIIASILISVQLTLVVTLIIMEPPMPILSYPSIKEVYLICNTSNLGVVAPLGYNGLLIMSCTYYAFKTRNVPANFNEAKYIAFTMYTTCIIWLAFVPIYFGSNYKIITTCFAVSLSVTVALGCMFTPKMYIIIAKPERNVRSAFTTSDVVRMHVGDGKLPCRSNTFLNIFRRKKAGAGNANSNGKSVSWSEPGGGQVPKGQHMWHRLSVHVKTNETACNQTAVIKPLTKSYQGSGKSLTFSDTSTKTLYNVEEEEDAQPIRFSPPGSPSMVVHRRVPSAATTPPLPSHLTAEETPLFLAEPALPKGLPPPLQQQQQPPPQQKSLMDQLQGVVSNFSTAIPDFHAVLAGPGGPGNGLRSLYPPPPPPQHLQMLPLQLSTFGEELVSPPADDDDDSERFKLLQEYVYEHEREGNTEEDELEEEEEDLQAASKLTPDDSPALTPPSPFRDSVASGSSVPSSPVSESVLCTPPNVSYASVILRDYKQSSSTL
# test.summary: Agonist activity at mGlu1 receptor expressed in CHO cells assessed as myo-[2-3H]Inositol turnover by scintillation counting
pEC50: −log10 of the molar value.
measured.attribute: pEC50

compound	experimental.result
C[C@H]1[C@H](C(=O)O)[C@H]1[C@H](N)C(=O)O (racemic)	< 4.00
N[C@H](C(=O)O)[C@@H]1[C@@H](C(=O)O)[C@@H]1C1CCCCC1 (racemic)	< 4.00
N[C@H](C(=O)O)[C@@H]1[C@@H](C(=O)O)[C@@H]1C1CC1 (racemic)	< 4.00

----------
# test.summary: Displacement of [3H]KAIN from kainate receptor in Sprague-Dawley rat brain synaptic membranes after 60 mins
# Format: cell membranes, Membrane
pIC50: −log10 of the molar value.

compound	pIC50
N[C@H](C(=O)O)[C@@H]1[C@@H](C(=O)O)[C@@H]1C1CC1 (racemic)	< 4.00
N[C@H](C(=O)O)[C@@H]1[C@@H](C(=O)O)[C@@H]1C1CCCCC1 (racemic)	< 4.00

----------
# test.summary: Displacement of [3H]AMPA from AMPA receptor in Sprague-Dawley rat brain synaptic membranes after 30 mins
# Type: cell membranes, Membrane
Consider the following compounds and their measured IC50 readings.

compound	IC50
N[C@H](C(=O)O)[C@@H]1[C@@H](C(=O)O)[C@@H]1C1CCCCC1 (racemic)	> 100 µM
N[C@H](C(=O)O)[C@@H]1[C@@H](C(=O)O)[C@@H]1C1CC1 (racemic)	> 100 µM

----------
# target.under.test: Metabotropic glutamate receptor 2 (Homo sapiens)
# Sequence (Q14416 whole entry): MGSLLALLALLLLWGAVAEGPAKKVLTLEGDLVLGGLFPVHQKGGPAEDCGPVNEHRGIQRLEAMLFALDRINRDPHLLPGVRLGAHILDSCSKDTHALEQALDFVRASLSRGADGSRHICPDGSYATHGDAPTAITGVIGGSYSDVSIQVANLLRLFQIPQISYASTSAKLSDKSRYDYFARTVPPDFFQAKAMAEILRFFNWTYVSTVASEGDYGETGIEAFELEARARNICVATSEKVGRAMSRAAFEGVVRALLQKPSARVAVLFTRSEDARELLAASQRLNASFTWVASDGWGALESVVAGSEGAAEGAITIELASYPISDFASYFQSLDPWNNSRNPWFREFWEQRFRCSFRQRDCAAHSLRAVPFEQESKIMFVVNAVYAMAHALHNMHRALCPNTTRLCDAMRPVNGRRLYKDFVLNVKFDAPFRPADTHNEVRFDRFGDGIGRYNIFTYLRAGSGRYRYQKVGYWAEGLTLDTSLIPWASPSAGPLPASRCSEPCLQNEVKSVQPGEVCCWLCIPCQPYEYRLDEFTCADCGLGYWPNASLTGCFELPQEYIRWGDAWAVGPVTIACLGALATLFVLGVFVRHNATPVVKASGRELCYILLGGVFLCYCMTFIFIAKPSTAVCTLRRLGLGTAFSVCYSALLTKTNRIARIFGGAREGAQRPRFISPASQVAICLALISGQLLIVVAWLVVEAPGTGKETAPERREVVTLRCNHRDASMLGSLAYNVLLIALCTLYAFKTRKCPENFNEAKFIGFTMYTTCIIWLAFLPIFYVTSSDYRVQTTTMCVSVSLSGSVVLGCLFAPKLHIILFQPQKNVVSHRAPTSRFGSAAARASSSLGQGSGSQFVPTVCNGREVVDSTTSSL
# test.summary: Antagonist activity at mGlu2 receptor expressed in CHO cells assessed as increase of cAMP level
pIC50: −log10 of the molar value.
measured.attribute: pIC50

compound	experimental.result
N[C@H](C(=O)O)[C@@H]1[C@@H](C(=O)O)[C@@H]1C1CCCCC1 (racemic)	4.21
